- Tested Target: UniProtKB E9AI53
- Sequence (E9AI53 entry or part of it): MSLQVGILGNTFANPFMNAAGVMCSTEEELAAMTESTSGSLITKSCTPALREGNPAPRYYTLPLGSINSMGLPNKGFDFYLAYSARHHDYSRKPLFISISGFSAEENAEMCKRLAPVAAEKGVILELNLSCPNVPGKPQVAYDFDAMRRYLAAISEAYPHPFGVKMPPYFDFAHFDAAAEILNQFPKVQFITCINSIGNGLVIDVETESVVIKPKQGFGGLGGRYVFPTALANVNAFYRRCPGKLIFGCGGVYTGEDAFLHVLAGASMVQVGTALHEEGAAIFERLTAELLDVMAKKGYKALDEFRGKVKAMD
- Measurement Notes: biochemical
- Condition Summary: 0 h, pH 8.15, read-out: LbDHODH Activity±SD (%)
Mark Y for reported activity at 6.25 µM of 90% or greater; mark N for anything smaller.

Worked set:
O=C1NC(=O)C(=Cc2ccc(-c3ccccc3)cc2)C(=O)N1 : Y
O=C1NC(=O)C(=C/C=C/c2ccccc2)C(=O)N1 : N
O=C1NC(=O)C(=Cc2ccc(O)c([N+](=O)[O-])c2)C(=O)N1 : N

// next entry
# check: activity at 6.25 µM of O=C1NC(=O)C(=Cc2ccc(N3CCOCC3)cc2[N+](=O)[O-])C(=O)N1 is greater than or equal to 90%
N

====

- Measurement Notes: in vitro
- Condition Summary: male, CD1, mouse, liver microsomes, pH 7.4, Calculated CLint, app (µl/min/mg), n=2, mouse liver microsomes, 0.4 mg/ml protein, 1 µM, replicate n=2
Measured Property: microsomal CLint at 1 μM (µL/min/mg)
Report the figure in µL/min/mg without appending any unit label.

Tell me the measured microsomal CLint at 1 μM of O=C(O)Cc1ccccc1Nc1c(Cl)cccc1Cl , please.
30.6

====

- Measurement Notes: in vitro
- Condition Summary: male, CD1, mouse, microsomes, pH 7.4, % Remaining, T=5 min, n=1, mouse liver microsomes, 1 µM, 5 min, n=1
// remaining at 5 min, 1 μM lookup, one value per entry
Kindly answer with a numeric value in %, unit omitted.

Answered examples (3):
O=C1NC(=O)C(=C/C=C/c2ccccc2)C(=O)N1 : 28.2
O=C1NC(=O)C(=Cc2ccc(-c3ccccc3F)[nH]2)C(=O)N1 : 5.9
O=C1NC(=O)C(=Cc2ccc(N3CCOCC3)cc2[N+](=O)[O-])C(=O)N1 : 91.8

Turning now to a further record.
Please look up its remaining at 5 min, 1 μM: COc1cc(C=C2C(=O)NC(=O)NC2=O)ccc1O
38.7

====

- Measurement Notes: in vitro
- Condition Summary: male, CD1, mouse, microsomes, pH 7.4, Calculated CLint, app (µl/min/mg), n=1, mouse liver microsomes, 0.4 mg/ml protein, 1 µM, replicate n=1
Measured Property: microsomal CLint at 1 μM
Enter the number, and then the unit.

Give the measured microsomal CLint at 1 μM of COc1cc(C=C2C(=O)NC(=O)NC2=O)ccc1O [2c] .
283 µL/min/mg

====

- Condition Summary: mouse liver microsomes, 0 min, replicate 1 (left block), raw LC-MS area
The compounds listed here are annotated with their Raw data: analyte peak area, T=0.
# print the numeric value only

Example results:
O=C(O)Cc1ccccc1Nc1c(Cl)cccc1Cl : 17523
CC(C)NCC(O)COc1cccc2ccccc12 (stereo not shown) : 97333
O=C1NC(=O)C(=C/C=C/c2ccccc2)C(=O)N1 : 4760

Note: attention shifts to another entry.
Reported Raw data: analyte peak area, T=0, compound O=C1NC(=O)C(=Cc2ccc(N3CCOCC3)cc2[N+](=O)[O-])C(=O)N1 : ____
18699

====

- Measurement Notes: in vitro
- Condition Summary: mouse, microsomes, pH 7.4, % Remaining, T=60 min, n=1, mouse liver microsomes, 1 µM, 60 min, n=1
Measured Property: remaining at 1 h, 1 µM (%)
Quick reminder: number only, in %, skip the unit.

Answered cases to consult:
O=C1NC(=O)C(=Cc2ccc(-c3ccccc3F)[nH]2)C(=O)N1 : 0.158
O=C1NC(=O)C(=C/C=C/c2ccccc2)C(=O)N1 : 0
COc1cc(C=C2C(=O)NC(=O)NC2=O)ccc1O : 12.9

Then this compound:
Would you kindly share the measured remaining at 1 h, 1 µM for O=C1NC(=O)C(=Cc2ccc(N3CCOCC3)cc2[N+](=O)[O-])C(=O)N1 ?
87.6
